Would you mind telling me the reported IC50 of each entry?
- TARGET_SYSTEM: T1, human VPAC2 receptor (human, UniProt P41587 24-438)
- T1 construct: whole, on cells; CHO-S cell line stably expressing human VPAC2 (cAMP assays)
- T1 sequence (looked up): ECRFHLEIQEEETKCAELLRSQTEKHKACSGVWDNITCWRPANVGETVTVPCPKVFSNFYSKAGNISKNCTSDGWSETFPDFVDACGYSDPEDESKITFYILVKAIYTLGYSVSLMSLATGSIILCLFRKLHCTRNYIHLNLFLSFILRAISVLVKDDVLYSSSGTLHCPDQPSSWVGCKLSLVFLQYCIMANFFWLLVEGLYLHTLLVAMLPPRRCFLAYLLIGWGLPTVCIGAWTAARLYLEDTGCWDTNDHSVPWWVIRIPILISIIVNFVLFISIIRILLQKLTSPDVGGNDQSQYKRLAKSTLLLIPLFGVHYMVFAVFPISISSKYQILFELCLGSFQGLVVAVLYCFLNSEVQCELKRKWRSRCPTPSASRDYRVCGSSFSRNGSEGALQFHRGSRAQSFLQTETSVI
- RUN_DESCRIPTION: filter binding, VPAC2 cell membranes, displacement of 125I-VIP
Respond with the bare value in nM.

Fill in: IC50 of HSDAVFTEQYTXXRXQVAAXXYLQSIXXGGPSSGAPPPS (C6-HSDAVFTEQY(OMe)TOrnK(CO(CH2)2SPEG20K)RAibQVAAAibOrnYLQSIOrnOrnGGPSSGAPPPS-NH2) [P470] is ___
263

Fill in: IC50 of HSDAVFTEQYTXLRXQVAAXXYLQSIXXGGPSSGAPPPS (C6-HSDAVFTEQY(OMe)TOrnLRAibQVAAAibK(W-PEG40K)YLQSIOrnOrnGGPSSGAPPPS-NH2) [P410] is ___
264

Fill in: IC50 of HSDAVFTEQYTXLRXQLAXXXYLQSIXXGGPSSGAPPPCC (C6-HSDAVFTEQY(OMe)TOrnLRAibQLAAbuAibOrnYLQSIOrnOrnGGPSSGAPPPC(PEG20K)C(PEG20K)-NH2) [P523] is ___
4.8
